biological target: human H3 receptor (Homo sapiens, UniProt Q9Y5N1); construct: expressed in transfected cells; assay: In vitro H3 functional assay (cAMP response element driven luciferase reporter); format: cell-based; settings: CHO(dhfr+)-cre-luc cells expressing human H3 receptor; RαMH 10 nM, forskolin 1 μM; read-out: hH3 functional IC50
Sequence (Q9Y5N1 whole entry): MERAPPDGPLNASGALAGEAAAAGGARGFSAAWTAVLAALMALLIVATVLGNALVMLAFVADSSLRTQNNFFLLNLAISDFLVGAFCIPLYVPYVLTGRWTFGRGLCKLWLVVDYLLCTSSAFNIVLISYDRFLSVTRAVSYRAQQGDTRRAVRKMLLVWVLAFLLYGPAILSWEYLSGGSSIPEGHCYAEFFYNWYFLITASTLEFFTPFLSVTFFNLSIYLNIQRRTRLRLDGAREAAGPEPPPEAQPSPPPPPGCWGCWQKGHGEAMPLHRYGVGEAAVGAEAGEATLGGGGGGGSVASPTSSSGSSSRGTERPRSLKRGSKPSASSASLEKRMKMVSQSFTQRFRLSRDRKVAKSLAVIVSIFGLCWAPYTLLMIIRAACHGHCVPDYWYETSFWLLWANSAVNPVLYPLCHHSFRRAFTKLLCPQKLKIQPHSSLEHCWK
Measured pIC50 of individual entries
Please report pIC50 as the negative decimal logarithm of the molar concentration, giving only the number.

Please list pIC50 recorded for the compound O=C(NCc1ccccc1)c1ccc2c(c1)CCN(C1CCC1)CC2 [Example 23]
8.70

Please list pIC50 recorded for the compound O=C(NCc1cccnc1)c1ccc2c(c1)CCN(C1CCC1)CC2 [Example 42]
7.52

Please list pIC50 recorded for the compound O=C(NCC1CCNCC1)c1ccc2c(c1)CCN(C1CCC1)CC2 [Example 5]
7.51

Please list pIC50 recorded for the compound O=C(NCc1cccc(-n2cncn2)c1)c1ccc2c(c1)CCN(C1CCC1)CC2 [Example 68]
8.52

Please list pIC50 recorded for the compound O=C(NCc1ccc(C(F)(F)F)o1)c1ccc2c(c1)CCN(C1CCC1)CC2 [Example 92]
9.00

Please list pIC50 recorded for the compound COc1ccc(CC(=O)Cc2ccc3c(c2)CCN(C2CCC2)CC3)cn1 [Example 244]
8.22

***
Please list pIC50 recorded for the compound O=C(NCC1CCOCC1)c1ccc2c(c1)CCN(C1CCC1)CC2 [Example 35]
9.00

Please list pIC50 recorded for the compound Cn1nccc1CNC(=O)c1ccc2c(c1)CCN(C1CCC1)CC2 [Example 1]
9.15

---

Measured pIC50 of individual entries
biological target: human H3 receptor (Homo sapiens); construct: expressed in transfected cells; assay: In vitro H3 functional assay (cAMP response element driven luciferase reporter); type: cell-based; conditions: CHO(dhfr+)-cre-luc cells expressing human H3 receptor; RαMH 10 nM, forskolin 1 μM; read-out: hH3 functional IC50
Please report pIC50 as the negative decimal logarithm of the molar concentration, giving only the number.

Please list pIC50 recorded for the molecule CNC(=O)c1ccc(CNC(=O)c2ccc3c(c2)CCN(C2CCC2)CC3)cc1 [Example 53]
8.22

***
Please list pIC50 recorded for the molecule CCNC(=O)C1CCC(O)(Cc2ccc3c(c2)CCN(C2CCC2)CC3)CC1 (stereo not drawn) [Example 231]
7.82

Please list pIC50 recorded for the molecule CC(C)(O)c1ccc(C(=O)NCc2ccc3c(c2)CCN(C2CCC2)CC3)cn1 [Example 239]
9.00

Please list pIC50 recorded for the molecule O=C(NCc1ccc2c(c1)CCN(C1CCC1)CC2)c1cnccn1 [Example 181]
8.40

Please list pIC50 recorded for the molecule Cc1noc(C)c1C(=O)NCc1ccc2c(c1)CCN(C1CCC1)CC2 [Example 263]
8.22

Please list pIC50 recorded for the molecule O=C(NCc1ccc2nccn2c1)c1ccc2c(c1)CCN(C1CCC1)CC2 [Example 81]
9.10

Please list pIC50 recorded for the molecule Cn1nccc1NC(=O)Cc1ccc2c(c1)CCN(C1CCC1)CC2 [Example 221]
8.52

---

molecular target: human H3 receptor (Homo sapiens); construct: expressed in transfected cells; assay: In vitro H3 functional assay (cAMP response element driven luciferase reporter); type: cell-based; conditions: CHO(dhfr+)-cre-luc cells expressing human H3 receptor; RαMH 10 nM, forskolin 1 μM; read-out: hH3 functional IC50
readout_type: IC50 (nM)
Reply with just the number (in nM).

Fill: IC50 (human H3 receptor (Homo sapiens)) for this compound O=C(NCc1c[nH]c2ccccc12)c1ccc2c(c1)CCN(C1CCC1)CC2 [Example 72]
2

Fill: IC50 (human H3 receptor (Homo sapiens)) for this compound O=C(NC1CCCC1)c1ccc2c(c1)CCN(C1CCC1)CC2 [Example 29]
8

Fill: IC50 (human H3 receptor (Homo sapiens)) for this compound Cn1ccc(CNC(=O)c2ccc3c(c2)CCN(C2CCC2)CC3)n1 [Example 103]
1

Fill: IC50 (human H3 receptor (Homo sapiens)) for this compound Cn1cccc1CNC(=O)c1ccc2c(c1)CCN(C1CCC1)CC2 [Example 111]
7

Fill: IC50 (human H3 receptor (Homo sapiens)) for this compound Cn1ccc(CCC(=O)c2ccc3c(c2)CCN(C2CCC2)CC3)n1 [Example 134]
1

***
Fill: IC50 (human H3 receptor (Homo sapiens)) for this compound O=C(NCc1nccs1)c1ccc2c(c1)CCN(C1CCC1)CC2 [Example 86]
1

Fill: IC50 (human H3 receptor (Homo sapiens)) for this compound O=C(NCc1cccc(Cn2cccn2)c1)c1ccc2c(c1)CCN(C1CCC1)CC2 [Example 70]
3

Fill: IC50 (human H3 receptor (Homo sapiens)) for this compound O=C(NCc1nc2ccccc2s1)c1ccc2c(c1)CCN(C1CCC1)CC2 [Example 78]
2
